// reported IC50 for each item listed
Target: Zcchc11 enzyme (Homo sapiens)
Construct: made in house; host or cells: HEK293 cells (Zcchc11); E. coli Rosetta II (LIN28A)
Sequence (Q5TAX3 212-1420): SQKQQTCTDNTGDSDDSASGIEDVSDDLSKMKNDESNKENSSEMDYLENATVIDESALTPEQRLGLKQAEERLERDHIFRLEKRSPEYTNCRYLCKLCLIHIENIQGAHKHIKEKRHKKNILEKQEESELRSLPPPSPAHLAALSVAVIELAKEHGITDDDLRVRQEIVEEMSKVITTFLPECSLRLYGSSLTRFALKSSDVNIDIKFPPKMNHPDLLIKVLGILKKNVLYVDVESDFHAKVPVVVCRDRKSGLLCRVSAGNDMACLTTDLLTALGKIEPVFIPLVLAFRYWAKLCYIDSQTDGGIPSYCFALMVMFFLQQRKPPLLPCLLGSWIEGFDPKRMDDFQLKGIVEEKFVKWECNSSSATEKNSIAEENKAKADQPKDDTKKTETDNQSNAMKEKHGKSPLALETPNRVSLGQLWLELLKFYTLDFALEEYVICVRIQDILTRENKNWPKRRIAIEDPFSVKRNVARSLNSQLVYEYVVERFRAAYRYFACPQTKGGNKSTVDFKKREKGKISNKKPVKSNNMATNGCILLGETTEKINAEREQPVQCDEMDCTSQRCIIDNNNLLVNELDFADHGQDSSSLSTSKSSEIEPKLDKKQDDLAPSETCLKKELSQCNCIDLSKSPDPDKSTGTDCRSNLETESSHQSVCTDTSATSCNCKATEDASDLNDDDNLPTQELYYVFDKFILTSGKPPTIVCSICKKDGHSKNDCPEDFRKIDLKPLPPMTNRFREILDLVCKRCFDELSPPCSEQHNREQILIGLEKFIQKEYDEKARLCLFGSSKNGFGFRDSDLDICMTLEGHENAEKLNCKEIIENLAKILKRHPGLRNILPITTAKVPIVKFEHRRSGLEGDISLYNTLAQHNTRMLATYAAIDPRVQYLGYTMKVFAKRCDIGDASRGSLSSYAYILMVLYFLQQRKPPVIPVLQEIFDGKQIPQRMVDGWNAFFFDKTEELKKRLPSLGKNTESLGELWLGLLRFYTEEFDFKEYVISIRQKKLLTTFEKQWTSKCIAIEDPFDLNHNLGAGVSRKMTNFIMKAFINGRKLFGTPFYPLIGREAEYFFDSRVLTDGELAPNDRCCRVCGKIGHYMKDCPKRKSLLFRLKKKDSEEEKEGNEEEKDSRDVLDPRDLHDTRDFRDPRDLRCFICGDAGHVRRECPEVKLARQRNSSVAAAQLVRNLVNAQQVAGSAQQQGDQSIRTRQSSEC
Test: TUTase assay (Zcchc11 assay, Lin28a-dependent polyuridylation of pre-let-7)
Format: biochemical
Conditions: Lin28a-dependent Zcchc11 (Z11) TUTase assay; read-out: Potency Lin28a-dep Z11 IC50

{"Compound": "Nc1ccc(-n2cc(C(=O)O)c(=O)c3cc(Cl)c(N4CCC[C@@H]4COc4ncccc4Cl)cc32)c(F)n1 [Example 518]", "IC50": "≤ 1000 nM"}
{"Compound": "O=C(O)c1cn(-c2cnccn2)c2cc(N3C[C@H](F)C[C@@H]3COc3ncccc3Cl)c(Cl)cc2c1=O [Example 590]", "IC50": "≤ 1000 nM"}
{"Compound": "CN(C)C1CN(c2cc(-n3cc(C(=O)O)c(=O)c4cc(Cl)c(N5CCC[C@@H]5COc5ncccc5Cl)nc43)ccn2)C1 [Example 544]", "IC50": "≤ 1000 nM"}
{"Compound": "O=C(O)c1cn(-c2cnc(O)cn2)c2cc(N3CCC[C@@H]3COc3ccccn3)c(F)cc2c1=O [Example 354]", "IC50": "1000 to 10000 nM"}

---

molecular target: Zcchc11 enzyme (Homo sapiens, UniProt Q5TAX3); construct: made in house; host or cells: HEK293 cells (Zcchc11); E. coli Rosetta II (LIN28A); assay: TUTase assay (Zcchc11 assay, Lin28a-dependent polyuridylation of pre-let-7); type: biochemical; conditions: LIN28A 10 nM, Zcchc11 0.2 nM, 5′-fluorescein pre-let-7 miRNA 2 nM, UTP 5 uM, room temperature, 30 minutes pre-incubation; read-out: Potency Lin28a-dep Z11 IC50
// reported IC50 for each item listed

{"Compound": "CN(C)C1CN(c2ccc(-n3cc(C(=O)O)c(=O)c4cc(C#N)c(N5C(=O)CC[C@@H]5COc5ncccc5Cl)cc43)cn2)C1", "IC50": "10000 to 50000 nM"}
{"Compound": "Cc1cc2c(=O)c(C(=O)O)cn(-c3ccc(N4CC(N(C)C)C4)nc3)c2cc1N1C(=O)CC1COc1ccccn1 (stereo not shown)", "IC50": "10000 to 50000 nM"}
{"Compound": "CN(C)C(=O)OC[C@H]1CCCN1c1cc2c(cc1Cl)c(=O)c(C(=O)O)cn2-c1ccc(N2CC(N(C)C)C2)nc1", "IC50": "≤ 1000 nM"}
{"Compound": "CN(C[C@H]1CCCN1c1cc2c(cc1F)c(=O)c(C(=O)O)cn2-c1ccc(O)cc1)c1ncccc1Cl", "IC50": "1000 to 10000 nM"}
{"Compound": "CN(C)C1CN(c2ccc(-n3cc(C(=O)O)c(=O)c4cc(Cl)c(N5CC6(CCC6)CC5COc5ncccc5Cl)cc43)cn2)C1 (stereo not shown)", "IC50": "≤ 1000 nM"}
{"Compound": "Cc1cccnc1OC[C@H]1CCCN1c1cc2c(cc1F)c(=O)c(C(=O)O)cn2-c1cnccn1", "IC50": "≤ 1000 nM"}
{"Compound": "Nc1ccc(-n2cc(C(=O)O)c(=O)c3cc(Cl)c(N4CCC[C@@H]4COc4ncccc4Cl)cc32)cn1", "IC50": "≤ 1000 nM"}
{"Compound": "O=C(O)c1cn(-c2ccccc2)c2cc(N3CCC[C@@H]3COc3ccccc3)c(F)cc2c1=O", "IC50": "> 50000 nM"}
{"Compound": "CCc1cccnc1OC[C@H]1CCCN1c1cc2c(cc1F)c(=O)c(C(=O)O)cn2-c1ccccc1", "IC50": "> 50000 nM"}
{"Compound": "Cc1cccnc1OC[C@H]1CCCN1c1cc2c(cc1F)c(=O)c(C(=O)O)cn2-c1ccccc1", "IC50": "≤ 1000 nM"}
{"Compound": "NCCOc1cccnc1OC[C@H]1CCCN1c1cc2c(cc1Cl)c(=O)c(C(=O)O)cn2-c1ccc(Br)nc1", "IC50": "≤ 1000 nM"}
{"Compound": "CO/N=C1/C[C@H](COc2nc(OC)ccc2Cl)N(c2cc3c(cc2Cl)c(=O)c(C(=O)O)cn3-c2ccc(N3CC(N(C)C)C3)nc2)C1", "IC50": "≤ 1000 nM"}
{"Compound": "O=C(O)c1cn(-c2cnccn2)c2cc(N3C[C@@H](F)C[C@@H]3COc3ncccc3Cl)c(Cl)cc2c1=O", "IC50": "≤ 1000 nM"}
{"Compound": "CN(C)c1ccc(-n2cc(C(=O)O)c(=O)c3cc(Cl)c(N4CCC[C@@H]4COc4ncccc4OCCN)cc32)cn1", "IC50": "≤ 1000 nM"}
{"Compound": "O=C(O)c1cn(-c2ccc3c(c2F)CCN3)c2cc(N3CCC[C@@H]3COc3ccccn3)c(F)cc2c1=O", "IC50": "≤ 1000 nM"}
{"Compound": "COCC1CC(n2cc(C(=O)O)c(=O)c3cc(F)c(N4CCC[C@@H]4COc4ccccn4)cc32)C1 (stereo partly shown)", "IC50": "10000 to 50000 nM"}
{"Compound": "Cc1cccnc1OC[C@H]1CCCN1c1c(F)cc2c(=O)c(C(=O)O)cn(-c3ccc(O)cc3F)c2c1F", "IC50": "≤ 1000 nM"}
{"Compound": "Cc1cccnc1OC[C@H]1CCCN1c1cc2c(cc1F)c(=O)c(C(=O)O)cn2-c1ccc(OCCN(C)C)cc1", "IC50": "≤ 1000 nM"}
{"Compound": "CN(C)C1CN(c2ccc(-n3cc(C(=O)O)c(=O)c4cc(Cl)c(N5CC(C6CCC6)C[C@@H]5COc5ncccc5Cl)cc43)cn2)C1 (stereo partly shown)", "IC50": "≤ 1000 nM"}
{"Compound": "CCS(=O)(=O)Nc1ccc(-n2cc(C(=O)O)c(=O)c3cc(Cl)c(N4CCC[C@@H]4COc4ncccc4Cl)cc32)cc1", "IC50": "≤ 1000 nM"}
{"Compound": "C[C@H]1CCN(c2cc3c(cc2Cl)c(=O)c(C(=O)O)cn3-c2ccc(N3CC(N(C)C)C3)nc2)[C@H]1COc1ncccc1Cl (racemic)", "IC50": "≤ 1000 nM"}
{"Compound": "COc1ccc(Cl)c(OC[C@H]2CC(c3cn[nH]c3)CN2c2cc3c(cc2F)c(=O)c(C(=O)O)cn3-c2ccc(N3CC(N(C)C)C3)nc2)n1 (stereo partly shown)", "IC50": "≤ 1000 nM"}
{"Compound": "COc1c(N2CCC[C@@H]2COc2ccccn2)c(F)cc2c(=O)c(C(=O)O)cn(C3CC3)c12", "IC50": "> 50000 nM"}
{"Compound": "COCCN1CC(C)(n2cc(C(=O)O)c(=O)c3cc(Cl)c(N4CCC[C@@H]4COc4ncccc4Cl)cc32)C1", "IC50": "1000 to 10000 nM"}
{"Compound": "CN(C)C1CN(c2ccc(-n3cc(C(=O)O)c(=O)c4cc(Cl)c(N5C(COc6ncccc6Cl)CCS5(=O)=O)cc43)cn2)C1 (stereo not shown)", "IC50": "≤ 1000 nM"}
{"Compound": "Cc1c(F)c(N2CCC[C@@H]2COc2ccccn2)cc2c1c(=O)c(C(=O)O)cn2C1CC1", "IC50": "> 50000 nM"}
{"Compound": "CN(C)C1CN(c2ccc(-n3cc(C(=O)O)c(=O)c4cc(C#N)c(N5CCC[C@@]5(C)COc5ncccc5F)cc43)cn2)C1", "IC50": "≤ 1000 nM"}
{"Compound": "Cc1cccnc1OC[C@H]1CC(C)CN1c1cc2c(cc1F)c(=O)c(C(=O)O)cn2-c1ccc(O)cc1 (stereo partly shown)", "IC50": "≤ 1000 nM"}
